Just for reference, paper PMC11514473 is where these values come from.

- tgt: T1, 285bZIP E299G (human, UniProt P16220-1 285-339, C300S;C310S;C337S;E299G)
- T1 sequence: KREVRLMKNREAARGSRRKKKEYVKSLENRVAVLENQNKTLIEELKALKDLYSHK
- assay: stopped-flow fluorescence (koff/kon); 10 mM Mg2+; 10 mM MES pH 6.5, 150 mM NaCl, 10 mM MgCl2, 0.05% Tween-20, 25 C; NMR: 10 mM Tris-d11, 150 mM NaCl, 10 mM MgCl2, 1 mM NaN3, 5% D2O (NOE at 25 C)
- experimental_setup: protein: recombinant; tags: extra N-terminal Gly; chain copies: 2; label: 5' Alexa Fluor 488; hairpin (self-annealing, 11 bp stem, CCCC loop)
pKd: −log10 of the molar value.

| binder | pKd |
| --- | --- |
| CCTGACGTCAGCCCCCTGACGTCAGG (structured_DNA) [AlexaFluor488-CREh] | 8.57 |
